Test system: Potassium voltage-gated channel subfamily KQT member 1 (Homo sapiens) (UniProt P51787)
Sequence (P51787 whole entry, looked up): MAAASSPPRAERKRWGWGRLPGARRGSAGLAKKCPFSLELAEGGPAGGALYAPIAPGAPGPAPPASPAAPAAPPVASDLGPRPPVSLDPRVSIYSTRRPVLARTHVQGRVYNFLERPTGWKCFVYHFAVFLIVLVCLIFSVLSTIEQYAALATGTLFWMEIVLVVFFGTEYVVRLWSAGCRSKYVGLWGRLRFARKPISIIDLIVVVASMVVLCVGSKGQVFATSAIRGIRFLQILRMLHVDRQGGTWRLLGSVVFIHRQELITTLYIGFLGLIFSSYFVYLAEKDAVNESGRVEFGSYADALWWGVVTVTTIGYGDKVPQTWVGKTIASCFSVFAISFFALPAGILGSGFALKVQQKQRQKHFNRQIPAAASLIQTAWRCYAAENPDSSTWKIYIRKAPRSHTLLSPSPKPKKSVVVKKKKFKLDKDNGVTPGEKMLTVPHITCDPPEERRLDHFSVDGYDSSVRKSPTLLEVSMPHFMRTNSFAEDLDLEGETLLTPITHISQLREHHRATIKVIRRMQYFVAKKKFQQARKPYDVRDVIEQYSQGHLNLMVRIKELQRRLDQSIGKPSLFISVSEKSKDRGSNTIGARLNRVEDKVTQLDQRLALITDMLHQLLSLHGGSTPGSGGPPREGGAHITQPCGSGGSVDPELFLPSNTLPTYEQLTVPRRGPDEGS
Procedure text: KCNQ1 channel current potentiators, confirmation, orthogonal assay for KCNQ1 potentiator project, IonWorks patch clamp, KCNQ1-CHO cells (AID 493184)
Experimental setup: automated patch clamp current, at 10 µM
The source made the active and inactive calls.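 The calls were made as follows: active = current rise at least 3 SD above the untreated control mean in each of two repeat wells; inactive = the rest.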
Observed property: current potentiation

Record excerpt, results attached:
Compound	current potentiation
COC(=O)c1ccc(C(=O)NC(=S)Nc2nc3c(s2)CCCC3)cc1	inactive
O=c1sc(N2CCN(c3ccccc3F)CC2)nc2ccsc12	inactive
O=C(NC(=S)Nc1ccccc1)c1cccs1	inactive
CN(CCCNC(=O)CSc1cc(=O)n(C)c2ccc(Cl)cc12)Cc1ccccc1	inactive
Cc1cc(C)c(NC(=O)c2cn3c4c(c(N5CCN(C)CC5)c(F)cc4c2=O)OCC3C)c(C)c1 (configuration not stated)	inactive

Given the compound CC1CCN(C(=S)NC(=O)c2cccs2)CC1 , what is its reported current potentiation?
inactive

Consider the compound CSc1ccc(NC(=O)CC(C)=O)cc1 and give its measured current potentiation.
inactive

current potentiation lookup needed for CCc1ccc(S(=O)(=O)Nc2cc3c(cc2N2CCCCC2)n(C)c(=O)c(=O)n3C)cc1 , thanks.
inactive

Bench note: what current potentiation did COc1cc2c(cc1OC)CN(C(=O)COc1ccccc1[N+](=O)[O-])CC2 show?
inactive

Field request: current potentiation | item: CNCCC=C1c2ccccc2CCc2ccccc21
inactive

For the compound O=C(NNc1c2ccccc2nc2ccccc12)c1ccccc1Cl , what current potentiation is on record?
inactive

Please give the measured current potentiation for this compound: CCOC(=O)c1c(NC(=S)NC)sc2c1CC(C)(C)SC2
inactive

From: PubChem BioAssay
